Below, each entry is listed alongside its reported melting point.

The examples below pair each entry with its known result.
CON1C=C2C=NC3=C(N(CCC(F)(F)F)CC(C)=C3N)N2C1    273 to 276 °C
CCN1CC(C)=C(N(C(C)=O)C(C)=O)C2=C1N1CN(OC)C=C1C=N2    135 to 136 °C
CCCN1CC(C)=C(NC2CCCC2)C2=C1N1CN(OC)C=C1C=N2    77 to 80 °C

(Q) Suppose we examine the compound CCN1CC(C)=C(N2CCN(c3ccccc3)CC2)C2=C1N1CN(OC)C=C1C=N2 ; what melting point value has been reported?
(A) 224 to 227 °C

(Q) Okay, and CCCN1CC(C)=C(N(C(C)=O)C(C)=O)C2=C1N1CN(OC)C=C1C=N2 ?
(A) 135 to 138 °C

(Q) Continue with CCN1CC(C)=C(N2CCOCC2)C2=C1N1CN(OC)C=C1C=N2
(A) 132 to 133 °C

(Q) Now try CON1C=C2C=Nc3c(ncc(-c4ccccc4)c3N)N2C1 .
(A) 252 to 253 °C

(Q) And for CCCN1CC(C)=C(NC(C)=O)C2=C1N1CN(OC)C=C1C=N2 ?
(A) 210 to 213 °C

(Q) CCN1CC(C)=C(NCc2ccccc2)C2=C1N1CN(OC)C=C1C=N2 , same question.
(A) 127 to 128 °C

(Q) And what about the compound CCCCNC1=C(C)CN(CC)C2=C1N=CC1=CN(OC)CN12 ?
(A) 62 to 65 °C

(Q) Consider next the compound CCCN1CC(C)=C(NC)C2=C1N1CN(OC)C=C1C=N2 in the same way.
(A) 111 to 113 °C

(Q) Then this compound: CCCN1CC(C)=C(NCC)C2=C1N1CN(OC)C=C1C=N2
(A) 140 to 142 °C
